# System: CAKI-1 renal
# run.description: NCI-60 one-dose screen, 48 h
# condition.label: 10 µM unless noted
About 83,000 compounds went through this panel and 20% of them were active in at least one assay; those are over-represented in the sample as a whole. Calls of active or inactive are those of the source. The calls were made as follows: active = growth percent below 10; inactive = the rest.
Outcomes you can answer with include only these: active, inactive

For CCC(c1ccc(OC)cc1)C(CC)c1ccc(O)c(CN2CCCC2)c1 (stereo unspecified) , what call appears in the results of this test?
inactive

Entry NC(=O)c1ccc2c(c1)OCO2 : call = ?
inactive

What outcome does the record of this test show for OCc1c(-c2ccccc2)nc2sccn12 ?
inactive

Outcome logged for COc1ccc(NC(=O)CSc2nc3ccccc3c(=O)n2Cc2cc(OC)c(OC)c(OC)c2)cc1 in this assay:
inactive

Assay result, entry COc1ccc(OC)c(-c2ccc(-c3ccccc3N)c3[nH]c4ccccc4c23)c1 — outcome?
inactive

How was CC(=O)n1cc([C@H]2CC[C@H](c3cn(C(C)=O)c4ccccc34)c3c2[nH]c2ccccc32)c2ccccc21 classified in this test?
inactive

Please share the test call associated with CCO/C=N/NC(=O)c1ccncc1 .
inactive

Can you look up the reported call for CNC(=O)Cc1nc(-c2cccc(NS(=O)(=O)c3c(F)cccc3F)c2F)c(-c2ccnc(Nc3ccccc3)n2)s1 for me?
inactive

# outcome recorded in this test, key = COC(=O)CC/C(C)=N\Nc1ccc([N+](=O)[O-])cc1
inactive

For this compound, state the assay outcome: COc1ccc(NC(=O)CSc2nc3ccccc3c(=O)n2-c2ccccc2C(F)(F)F)c(OC)c1OC
inactive

# lookup: test call for O=[N+]([O-])c1ccc(S(=O)(=O)N2CCN(c3ccnc4cc(Cl)ccc34)CC2)c([N+](=O)[O-])c1
inactive

Assay result, entry C=CCOc1ccc(/C(O)=C2\C(=O)C(=O)N(c3nccs3)C2c2ccccc2F)cc1 (stereo unspecified) — outcome?
inactive

Outcome? COc1ccc(/C=C2\CCCC3=C2NC(C)=NC3c2ccc(OC)c(OC)c2)cc1OC (stereo unspecified)
active

// return assay outcome for CCCC1OC(c2ccc(C(C)C)cc2)OCC1CC (stereo unspecified)
inactive

Each compound tested received a call. Report the one for COc1ccc(/C=C/c2nc(N3CCOCC3)c3nc(Cl)c(Cl)cc3n2)cc1OC .
inactive

Tell me the assay call for O=C(O)c1cn(C2CC2)c2cc(N3CCN(S(=O)(=O)c4ccc(Cl)c(Cl)c4)CC3)c(F)cc2c1=O please.
active

Name the outcome recorded for Cc1sc(N=Nc2ccc(N(C)C)cc2)[n+]([O-])c1C in the assay.
inactive

Per the records of this test, what outcome belongs to COc1ccc(Cn2c(SC)nc(=O)n(Cc3ccc(Cl)cc3)c2=O)cc1 ?
inactive

What is the recorded call for this compound in the test? CC(C)CCN(CCCNc1c2c(nc3ccccc13)CCCC2)CCC(C)C
inactive

# lookup: test call for Cc1cc2c(c(=O)o1)C(c1ccc(OC(=O)N3CCOCC3)cc1)C(C#N)=C(N)O2 (stereo unspecified)
inactive

What classification did CC(=O)N1Cc2ccccc2C(C)Cc2cc(Cl)ccc21 (stereo unspecified) end up with in this test?
inactive

###

# System: KM12 colon
# run.description: NCI-60 one-dose screen, 48 h (100 = growth as untreated, 0 = no growth, -100 = all killed)
# condition.label: 10 µM unless noted
Compounds without any hit were thinned out: in the full panel of roughly 83,000, 20% have a hit.
What growth was measured for each of the following?
State the answer as a number, implicitly in %.

Report growth for O=C1NCC(c2cc3ccccc3[nH]c2=O)Nc2ccccc21 (centres undefined) please.
103

Need growth of O=c1c2cccc3c(Nc4ccc(F)cc4)ccc(c32)c2nc3ccccc3n12 , thanks.
74.4

Recorded growth of Cc1cc2c(c(=O)o1)C(c1ccc(OC(=O)N3CCOCC3)cc1)C(C#N)=C(N)O2 (centres undefined) , please.
105

Consider the compound O=P([O-])(O)OP(=O)([O-])O.[NH-][C@H]1CCCC[C@@H]1[NH-].[OH-].[OH-].[Pt+4] and give its measured growth.
104

Record request: growth value, item Cc1ccccc1C(=O)c1ccccc1C(=O)O
107

# growth lookup, item C=C1C(=O)O[C@H]2[C@H]1CC/C(COC(=O)NCc1ccc(OC)cc1)=C\CC[C@@]1(C)O[C@@H]21
73.8

Using the record for C#CCN1C(=O)/C(=c2\sc3n(c2=O)NC2C(N=3)N(CC)C(=O)N2CC)c2ccccc21 (centres undefined) , report its growth.
46.8

I am curious: what growth value has been reported for CCn1cc(C(=O)O)c(=O)c2cc(F)c(N3CCN(S(=O)(=O)c4c(C)cc(C)cc4C)CC3)cc21 ?
87.2

Query: growth; subject: COc1ccc(OC)c(NC(=O)c2cc(S(=O)(=O)N3CCc4ccccc43)ccc2OC)c1
111
